assay-system: T1, human chemokine (C-C motif) receptor 8 (CCR8) (human, UniProt P51685 1-355)
T1 construct: also called hCCR8
T1 sequence (P51685 whole entry): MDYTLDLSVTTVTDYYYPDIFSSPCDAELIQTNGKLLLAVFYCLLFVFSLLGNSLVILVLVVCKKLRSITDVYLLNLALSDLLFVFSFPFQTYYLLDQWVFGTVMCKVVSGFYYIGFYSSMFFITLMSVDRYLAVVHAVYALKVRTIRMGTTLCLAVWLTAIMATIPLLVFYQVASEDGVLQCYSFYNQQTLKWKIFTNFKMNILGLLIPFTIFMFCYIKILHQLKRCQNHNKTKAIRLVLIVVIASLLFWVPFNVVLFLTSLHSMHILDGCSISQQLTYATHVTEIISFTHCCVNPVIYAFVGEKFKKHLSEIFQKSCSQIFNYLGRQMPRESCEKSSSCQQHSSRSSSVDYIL
measurement-notes: flow cytometry blocking, human PBMC, CD3+ gate; % cells stained by competitor PE-AB13 after block
readout-type: % Positive cells (%)
Express the result in % but write the number alone.

• anti-CCR8 monoclonal antibody AB8 (antibody, V domains shown, Hybridoma monoclonal; also called antibody 8; clone 8) VH: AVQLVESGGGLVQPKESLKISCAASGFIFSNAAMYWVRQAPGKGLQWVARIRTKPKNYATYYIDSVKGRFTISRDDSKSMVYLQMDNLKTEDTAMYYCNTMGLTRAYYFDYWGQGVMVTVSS VL: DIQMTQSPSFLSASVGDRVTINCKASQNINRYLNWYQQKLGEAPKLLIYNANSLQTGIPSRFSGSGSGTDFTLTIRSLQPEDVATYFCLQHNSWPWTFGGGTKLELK = 0.26
• anti-CCR8 monoclonal antibody AB5 (antibody, V domains shown, Hybridoma monoclonal; also called antibody 5; clone 5) VH: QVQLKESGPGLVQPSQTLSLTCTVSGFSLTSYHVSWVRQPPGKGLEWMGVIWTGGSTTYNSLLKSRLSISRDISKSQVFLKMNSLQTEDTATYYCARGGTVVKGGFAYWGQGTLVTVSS VL: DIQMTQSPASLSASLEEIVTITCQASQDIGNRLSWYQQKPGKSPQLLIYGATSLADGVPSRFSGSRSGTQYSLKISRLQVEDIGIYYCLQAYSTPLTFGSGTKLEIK = 7.01
• anti-CCR8 monoclonal antibody AB10 (antibody, V domains shown, Hybridoma monoclonal; also called antibody 10; clone 10) VH: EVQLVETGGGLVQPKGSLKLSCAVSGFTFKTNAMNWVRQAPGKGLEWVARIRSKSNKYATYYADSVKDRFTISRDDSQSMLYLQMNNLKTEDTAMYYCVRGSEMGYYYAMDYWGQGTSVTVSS VL: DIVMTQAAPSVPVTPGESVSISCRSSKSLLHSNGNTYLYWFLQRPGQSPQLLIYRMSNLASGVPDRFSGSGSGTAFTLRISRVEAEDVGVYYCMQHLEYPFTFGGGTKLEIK = 0.79
• anti-CCR8 monoclonal antibody AB6 (antibody, V domains shown, also called antibody 6; clone 6) VH: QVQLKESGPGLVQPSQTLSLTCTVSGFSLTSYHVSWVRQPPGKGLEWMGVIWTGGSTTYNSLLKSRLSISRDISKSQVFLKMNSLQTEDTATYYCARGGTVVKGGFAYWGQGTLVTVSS VL: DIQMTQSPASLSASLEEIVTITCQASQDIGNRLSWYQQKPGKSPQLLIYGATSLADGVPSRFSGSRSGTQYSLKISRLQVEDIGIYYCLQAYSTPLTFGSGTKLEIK = 6.49
• anti-CCR8 monoclonal antibody AB11 (antibody, V domains shown, Hybridoma monoclonal; also called antibody 11; clone 11) VH: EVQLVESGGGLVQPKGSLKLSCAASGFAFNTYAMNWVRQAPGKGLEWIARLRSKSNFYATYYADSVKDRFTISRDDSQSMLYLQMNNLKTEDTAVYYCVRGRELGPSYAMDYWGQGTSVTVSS VL: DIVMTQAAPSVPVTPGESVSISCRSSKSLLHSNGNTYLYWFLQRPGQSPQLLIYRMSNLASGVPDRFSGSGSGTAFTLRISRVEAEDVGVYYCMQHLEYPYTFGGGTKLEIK = 0.39

**Query** Field request: % Positive cells | item: anti-CCR8 monoclonal antibody AB7 (antibody, V domains shown, Hybridoma monoclonal; also called antibody 7; clone 7) VH: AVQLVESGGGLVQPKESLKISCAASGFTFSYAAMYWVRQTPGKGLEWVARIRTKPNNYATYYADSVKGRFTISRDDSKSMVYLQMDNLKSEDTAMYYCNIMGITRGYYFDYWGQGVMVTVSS VL: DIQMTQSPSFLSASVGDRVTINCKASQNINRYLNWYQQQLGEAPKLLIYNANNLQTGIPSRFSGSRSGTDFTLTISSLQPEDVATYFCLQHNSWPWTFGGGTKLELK
**Result** 0.96

**Query** Now give it for anti-CCR8 monoclonal antibody AB13 (antibody, V domains shown, Hybridoma monoclonal; also called antibody 13; clone 13) VH: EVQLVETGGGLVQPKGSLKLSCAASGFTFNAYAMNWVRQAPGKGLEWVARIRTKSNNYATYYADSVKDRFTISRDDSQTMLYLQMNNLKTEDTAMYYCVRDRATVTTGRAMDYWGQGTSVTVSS VL: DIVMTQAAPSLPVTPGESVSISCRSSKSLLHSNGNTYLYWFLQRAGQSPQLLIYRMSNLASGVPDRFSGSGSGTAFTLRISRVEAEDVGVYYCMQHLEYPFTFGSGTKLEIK too.
**Result** 4.34

Data provenance is patent US20240360228A1.
